B1: POU domain, class 2, transcription factor 2, residues 200 to 269; numbered along this chain, P09086 (parent)
chain: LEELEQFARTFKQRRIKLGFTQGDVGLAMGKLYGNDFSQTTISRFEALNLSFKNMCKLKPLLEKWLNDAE

Variants of: B1
assay-overview: abundance fitness (aPCA) (normalised: wild type 0, dead -1); higher = more abundant; growth selection in yeast, the domain comes from the species named
stated-conditions: Homo sapiens
Reported values of abundance fitness for individual entries

{"columns": ["variant-notation", "abundance fitness"],
 "data": [
  ["T41C", 0.094],
  ["L27C", -0.057],
  ["L4Q", -0.233],
  ["Q39N", -0.306],
  ["W65T", -0.362],
  ["L50H", -0.089],
  ["K17N", 0.02],
  ["L18I", -0.099],
  ["N35W", -0.026],
  ["E46P", -0.885],
  ["K59R", -0.078],
  ["D36N", -0.063],
  ["G23V", -0.029],
  ["R14M", -0.061],
  ["E3P", -0.76],
  ["L62S", -0.804],
  ["K57P", -0.44],
  ["P60F", -0.05],
  ["L58E", -0.478],
  ["M55A", -0.022],
  ["F45Y", -0.158],
  ["F20S", -0.207],
  ["K53M", -0.055],
  ["K17Q", -0.096],
  ["L18H", -0.049],
  ["G26D", 0.047],
  ["F37E", -0.255],
  ["R15G", -1.01],
  ["E2C", -0.699],
  ["A8D", -0.883],
  ["L58K", -0.099],
  ["P60R", -0.102],
  ["Q6L", -0.066],
  ["S43K", 0.062],
  ["L4G", -0.655],
  ["F11S", -0.242],
  ["L4C", -0.784],
  ["E3F", -0.208],
  ["Y33C", -0.043],
  ["F52L", -0.014],
  ["Q6F", -0.086],
  ["L32K", 0.01],
  ["K31A", -0.019],
  ["P60N", -0.177],
  ["W65R", -0.628],
  ["E3N", -0.107],
  ["Q13C", -0.115],
  ["T21A", -0.138],
  ["N49G", -0.004],
  ["L18A", -0.025],
  ["L61R", -0.038],
  ["L58R", -0.259],
  ["T40D", 0.02],
  ["E3D", -0.087],
  ["A69G", -0.126],
  ["E3I", -0.078],
  ["L66V", 0.007],
  ["L32T", -0.071],
  ["G26T", -0.014],
  ["D68I", -0.22],
  ["Y33R", -0.17],
  ["L58M", -0.011],
  ["K59F", -0.14],
  ["G19S", -0.118],
  ["R14Q", -0.084],
  ["L61F", 0.05],
  ["M29A", -0.131]
]}
